Measured values drawn from patent US11919887B2 for this set.

Assign pIC50 to each entry below.
TARGET_OF_ASSAY: human Nav 1.8 (Homo sapiens)
Sequence (Q9Y5Y9 whole entry, looked up, the tested form may be a part): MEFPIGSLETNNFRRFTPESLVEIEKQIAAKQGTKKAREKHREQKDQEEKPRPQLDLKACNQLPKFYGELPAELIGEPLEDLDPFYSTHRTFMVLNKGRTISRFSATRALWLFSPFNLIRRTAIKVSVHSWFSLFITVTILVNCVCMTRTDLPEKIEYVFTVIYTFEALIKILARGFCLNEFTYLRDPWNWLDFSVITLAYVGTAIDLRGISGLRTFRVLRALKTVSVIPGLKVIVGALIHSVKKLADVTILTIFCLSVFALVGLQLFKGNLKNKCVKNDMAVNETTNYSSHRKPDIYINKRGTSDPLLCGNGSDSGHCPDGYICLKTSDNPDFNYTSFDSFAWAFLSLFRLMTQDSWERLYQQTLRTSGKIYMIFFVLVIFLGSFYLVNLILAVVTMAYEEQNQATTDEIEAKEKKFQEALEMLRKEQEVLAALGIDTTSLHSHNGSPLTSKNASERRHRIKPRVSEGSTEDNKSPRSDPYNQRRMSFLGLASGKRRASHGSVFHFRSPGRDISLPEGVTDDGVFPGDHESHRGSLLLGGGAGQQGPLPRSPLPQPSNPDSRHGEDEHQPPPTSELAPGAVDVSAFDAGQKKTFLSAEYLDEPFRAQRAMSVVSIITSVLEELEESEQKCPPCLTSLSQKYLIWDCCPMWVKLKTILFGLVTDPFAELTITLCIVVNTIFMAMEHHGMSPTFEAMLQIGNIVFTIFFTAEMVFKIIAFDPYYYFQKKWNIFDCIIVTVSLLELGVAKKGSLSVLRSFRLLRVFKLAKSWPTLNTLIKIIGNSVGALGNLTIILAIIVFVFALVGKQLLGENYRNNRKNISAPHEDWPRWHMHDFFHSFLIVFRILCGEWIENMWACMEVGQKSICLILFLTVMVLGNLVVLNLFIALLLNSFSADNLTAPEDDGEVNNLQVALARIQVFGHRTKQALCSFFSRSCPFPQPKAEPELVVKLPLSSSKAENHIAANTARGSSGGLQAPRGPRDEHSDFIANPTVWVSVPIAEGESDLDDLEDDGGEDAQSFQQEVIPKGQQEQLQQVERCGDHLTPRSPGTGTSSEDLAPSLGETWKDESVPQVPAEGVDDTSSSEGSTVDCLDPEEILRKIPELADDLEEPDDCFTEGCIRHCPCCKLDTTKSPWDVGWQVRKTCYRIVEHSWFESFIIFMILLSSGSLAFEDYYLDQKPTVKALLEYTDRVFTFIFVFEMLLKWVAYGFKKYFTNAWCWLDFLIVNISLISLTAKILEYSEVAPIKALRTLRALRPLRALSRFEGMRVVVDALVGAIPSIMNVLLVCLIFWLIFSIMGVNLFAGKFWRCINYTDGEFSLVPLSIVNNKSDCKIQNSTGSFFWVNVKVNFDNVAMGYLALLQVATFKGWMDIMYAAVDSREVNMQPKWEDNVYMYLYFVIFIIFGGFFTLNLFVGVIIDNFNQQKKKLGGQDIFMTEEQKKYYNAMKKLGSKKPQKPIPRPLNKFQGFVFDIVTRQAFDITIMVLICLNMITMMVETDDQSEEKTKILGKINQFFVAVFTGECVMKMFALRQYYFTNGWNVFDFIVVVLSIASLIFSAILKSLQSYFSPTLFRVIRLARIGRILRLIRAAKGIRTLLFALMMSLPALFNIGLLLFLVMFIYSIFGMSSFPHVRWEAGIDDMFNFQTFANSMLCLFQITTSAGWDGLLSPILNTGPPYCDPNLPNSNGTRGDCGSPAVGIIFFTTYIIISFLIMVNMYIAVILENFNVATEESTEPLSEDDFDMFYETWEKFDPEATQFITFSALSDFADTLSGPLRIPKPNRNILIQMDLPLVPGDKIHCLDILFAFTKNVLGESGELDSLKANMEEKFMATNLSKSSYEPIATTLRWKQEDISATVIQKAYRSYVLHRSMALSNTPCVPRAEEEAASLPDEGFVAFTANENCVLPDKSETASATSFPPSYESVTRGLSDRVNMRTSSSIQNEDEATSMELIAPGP
EXPERIMENTAL_DETAILS: E-VIPR assay detecting and measuring Nav inhibition (HEK cells expressing truncated human Nav 1.8)
Format: cell-based
TEST_CONDITIONS: in the Presence of Human Serum in the E-VIPR Assay
pIC50: −log10 of the molar value.

Batch request: pIC50 per item, same order as input.
1. COc1c([C@H]2[C@H](C(=O)Nc3ccnc(C(N)=O)c3)O[C@@](C)(C(F)(F)F)[C@H]2C)ccc(F)c1F
2. COc1c([C@@H]2[C@@H](C)[C@](C)(C(F)(F)F)O[C@H]2C(=O)Nc2ccnc(C(N)=O)c2)ccc(F)c1F (racemic)
3. [2H]C([2H])([2H])Oc1c([C@H]2[C@H](C(=O)Nc3ccnc(C(N)=O)c3)O[C@@](C)(C(F)(F)F)[C@H]2C)ccc(F)c1F
4. COc1c([C@@H]2[C@@H](C(=O)Nc3ccnc(C(N)=O)c3)O[C@@](C)(C(F)(F)F)[C@H]2C)ccc(F)c1F (racemic)
5. COc1c([C@@H]2[C@@H](C(=O)Nc3ccnc(C(N)=O)c3)O[C@](C)(C(F)(F)F)[C@@H]2C)ccc(F)c1F
6. COc1c([C@@H]2[C@@H](C(=O)Nc3ccnc(C(N)=O)c3)O[C@@](C)(C(F)(F)F)[C@@H]2C)ccc(F)c1F (racemic)

1: > 8.00; 2: 6.00 to 7.00; 3: > 8.00; 4: < 6.00; 5: < 6.00; 6: 6.00 to 7.00

----------
TARGET_OF_ASSAY: human Nav 1.8 (Homo sapiens)
EXPERIMENTAL_DETAILS: E-VIPR assay detecting and measuring Nav inhibition (HEK cells expressing truncated human Nav 1.8)
Format: cell-based
TEST_CONDITIONS: in the Presence of Human Serum in the E-VIPR Assay; read-out: IC50
READOUT_LABEL: IC50

> print(dat)
                                   compound  observed.value
1  COc1c([C@@H]2C[C@H](C(C)(C)C)O[C@H]2C(=O)Nc2ccnc(C(N)=O)c2)ccc(F)c1F (single isomer, unassigned)  100 to 1000 nM
2  COc1c([C@H]2[C@H](C(=O)Nc3ccnc(C(N)=O)c3)O[C@@](C)(C(F)(F)F)[C@H]2C2CC2)ccc(F)c1F (single isomer, unassigned)       > 1000 nM
3  COc1cc(F)ccc1[C@H]1[C@H](C(=O)Nc2ccnc(C(N)=O)c2)O[C@](C)(C(F)(F)F)[C@H]1C (single isomer, unassigned)       > 1000 nM
4  COc1c([C@H]2[C@@H](C)[C@@H](C)O[C@@H]2C(=O)Nc2ccnc(C(N)=O)c2)ccc(F)c1F (stereo in doubt)       > 1000 nM

Would you be so kind as to report IC50 for each listed record?
1. COc1c([C@@H]2[C@@H](C)C(C)(C)O[C@H]2C(=O)Nc2ccnc(C(N)=O)c2)ccc(F)c1F (single isomer, unassigned) [Compound 102]
2. COc1c([C@@H]2[C@H](C)[C@H](C(F)(F)F)O[C@H]2C(=O)Nc2ccnc(C(N)=O)c2)ccc(F)c1F (relative stereo) [Compound 25]

> 1000 nM
< 10 nM
